Value source: ChEMBL document CHEMBL2401643

measurement.description: Metabolic stability in human liver microsomes assessed as compound remaining after 15 mins
Type: ADME, Microsome
condition: read-out: Stability
observed.property: remaining at 0.25 h (%)

| compound | remaining at 0.25 h / % |
| --- | --- |
| CCN(CC)C(=O)C(c1ccccc1)N1CCN(c2ccc(NC(=O)c3ccccc3-c3cccnc3)cc2F)CC1 (centres undefined) | 1.4 |

a = CCN(CC)C(=O)C(c1ccccc1)C1CCN(c2ccc(NC(=O)c3ccccc3-c3cccnc3)cc2F)CC1 (centres undefined)
b = CCN(CC)C(=O)C(c1ccccc1)C1CCN(c2ccc(NC(=O)Nc3c(C)noc3C)cc2F)CC1 (centres undefined)
c = CCN(CC)C(=O)C(c1ccccc1)C1CCN(c2ccc(NC(=O)c3c(C)noc3C)cc2F)CC1 (centres undefined)
Enquiry: Would you mind ranking these compounds by ascending remaining at 0.25 h? Show the ranking through the labels, in the order asked for.
Return: b, c, a
